- target system: T1, Human SHP-1 with an N-terminal 6x His tag (human, UniProt P29350 1-595)
- T1 construct: UniProt P29350 printed; also called protein tyrosine phosphatase SHP-1; source: E. coli BL21-CodonPlus (DE3)-RIPL, purified (Ni2+-NTA agarose, SEC on Superdex S200)
- T1 sequence (P29350 whole entry): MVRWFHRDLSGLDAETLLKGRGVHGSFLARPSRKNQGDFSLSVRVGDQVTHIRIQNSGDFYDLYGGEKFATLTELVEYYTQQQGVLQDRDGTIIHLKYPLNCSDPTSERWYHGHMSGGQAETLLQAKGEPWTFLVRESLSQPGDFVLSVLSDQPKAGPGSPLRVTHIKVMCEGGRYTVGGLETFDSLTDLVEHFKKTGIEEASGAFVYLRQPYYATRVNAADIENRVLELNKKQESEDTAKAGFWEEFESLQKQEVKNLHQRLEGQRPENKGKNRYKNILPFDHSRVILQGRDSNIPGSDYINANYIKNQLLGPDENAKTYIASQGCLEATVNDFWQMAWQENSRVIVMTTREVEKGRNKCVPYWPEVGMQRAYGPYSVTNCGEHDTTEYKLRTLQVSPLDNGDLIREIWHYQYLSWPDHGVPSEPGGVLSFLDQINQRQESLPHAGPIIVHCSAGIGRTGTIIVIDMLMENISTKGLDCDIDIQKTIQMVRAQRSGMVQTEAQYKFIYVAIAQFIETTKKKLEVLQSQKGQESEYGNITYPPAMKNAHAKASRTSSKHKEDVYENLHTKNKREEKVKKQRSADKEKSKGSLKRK
- assay method text: SPR; biotinylated peptide on streptavidin-coupled CM5 chip (25-100 RU), SHP-1 injected 45 s at 10 uL/min; Biacore T200; 37°C; 10 mM HEPES pH 7.4, 150 mM NaCl, 3 mM EDTA, 0.05% Tween 20, 1 mM dithiothreitol; constants from the fit of the extended MPDPDE model
- stated conditions: both partners purified
observable: Kd (µM)

SLAM peptide (cytoplasmic tail of SLAM, 77 aa, singly phosphorylated) (biotin on the N-terminus; phosphotyrosine in the ITSM (position 327 in the native sequence), cytoplasmic tail of SLAM, 77 aa; only the last tyrosine (327) is phosphorylated; source: synthetic peptide (Peptide Protein Research)) peptide: QLRRRGKTNHYQTTVEKKSLTIYAQVQKPGPLQKKLDSFPAQDPCTTIYVAATEPVPESVQETNSITVYASVTLPES    130
